# ASSAY_TARGET: VLA-4 (α4β1 integrin) (Homo sapiens, UniProt P05556+P13612)
# Sequence (P13612 34-1032): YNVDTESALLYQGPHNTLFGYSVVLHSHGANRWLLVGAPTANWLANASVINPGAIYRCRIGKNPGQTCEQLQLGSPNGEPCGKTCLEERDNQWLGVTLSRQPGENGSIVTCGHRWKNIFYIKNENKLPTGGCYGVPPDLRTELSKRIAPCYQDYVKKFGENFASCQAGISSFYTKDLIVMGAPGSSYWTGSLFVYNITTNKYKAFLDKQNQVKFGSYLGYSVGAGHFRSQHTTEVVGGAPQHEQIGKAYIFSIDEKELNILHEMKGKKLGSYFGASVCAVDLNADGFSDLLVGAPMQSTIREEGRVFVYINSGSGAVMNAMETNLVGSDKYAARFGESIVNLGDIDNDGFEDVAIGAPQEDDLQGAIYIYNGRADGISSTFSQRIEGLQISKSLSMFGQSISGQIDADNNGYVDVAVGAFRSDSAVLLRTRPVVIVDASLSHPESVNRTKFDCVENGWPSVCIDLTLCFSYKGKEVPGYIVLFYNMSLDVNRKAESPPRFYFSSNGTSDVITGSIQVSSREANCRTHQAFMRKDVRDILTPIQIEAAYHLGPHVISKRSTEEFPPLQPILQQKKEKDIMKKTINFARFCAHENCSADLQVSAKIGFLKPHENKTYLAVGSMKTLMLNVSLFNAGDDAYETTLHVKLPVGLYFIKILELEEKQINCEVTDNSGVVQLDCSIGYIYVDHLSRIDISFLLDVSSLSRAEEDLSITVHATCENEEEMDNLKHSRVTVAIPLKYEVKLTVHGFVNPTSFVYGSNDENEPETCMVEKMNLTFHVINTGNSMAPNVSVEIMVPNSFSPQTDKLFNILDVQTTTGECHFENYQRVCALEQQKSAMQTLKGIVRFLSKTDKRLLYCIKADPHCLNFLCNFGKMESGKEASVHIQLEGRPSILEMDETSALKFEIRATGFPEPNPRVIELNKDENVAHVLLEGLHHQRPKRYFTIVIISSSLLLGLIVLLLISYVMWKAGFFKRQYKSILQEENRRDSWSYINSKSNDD
# Sequence (P05556 21-798): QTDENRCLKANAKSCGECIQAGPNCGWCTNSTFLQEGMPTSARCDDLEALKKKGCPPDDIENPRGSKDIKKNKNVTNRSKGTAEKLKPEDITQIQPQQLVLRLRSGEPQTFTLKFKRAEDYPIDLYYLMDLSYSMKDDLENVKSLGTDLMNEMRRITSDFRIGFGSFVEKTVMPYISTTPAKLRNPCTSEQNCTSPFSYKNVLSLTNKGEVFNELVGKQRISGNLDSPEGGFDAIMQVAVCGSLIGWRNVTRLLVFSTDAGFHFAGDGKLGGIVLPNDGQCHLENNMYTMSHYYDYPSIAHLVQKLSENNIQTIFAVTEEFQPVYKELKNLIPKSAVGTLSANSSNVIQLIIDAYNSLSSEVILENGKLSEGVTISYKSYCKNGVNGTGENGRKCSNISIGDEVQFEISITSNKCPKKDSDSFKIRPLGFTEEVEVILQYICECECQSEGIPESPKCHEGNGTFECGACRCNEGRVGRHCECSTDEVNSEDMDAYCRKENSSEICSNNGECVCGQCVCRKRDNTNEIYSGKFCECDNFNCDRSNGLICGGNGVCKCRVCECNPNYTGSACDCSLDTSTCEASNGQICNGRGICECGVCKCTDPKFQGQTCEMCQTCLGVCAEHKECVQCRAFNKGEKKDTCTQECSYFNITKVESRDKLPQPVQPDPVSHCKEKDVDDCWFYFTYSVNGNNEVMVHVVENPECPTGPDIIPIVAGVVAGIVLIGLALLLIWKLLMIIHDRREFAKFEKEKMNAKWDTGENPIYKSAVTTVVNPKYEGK
# TEST_METHOD_NOTES: cell-based
# Type: cell-based
# CONDITION_INFO: table 11, Examples 151-155; assay not given, values equal Ramos table 14; read-out: IC50
// values below are reported pIC50
By convention, pIC50 is the negative base-10 log of a molar concentration.

Worked cases, pIC50 given:
[
  {
    "COMPOUND": "Cc1cccc(Cl)c1C(=O)N[C@@H](Cc1ccc(NC(=O)c2c(C)noc2C)cc1)C(=O)O [Example 153]",
    "pIC50": 6.01
  },
  {
    "COMPOUND": "Cc1cc2ncc(C(=O)Nc3ccc(C[C@H](NC(=O)c4c(C)cccc4Cl)C(=O)O)cc3)c(C)n2n1 [Example 155]",
    "pIC50": 6.19
  },
  {
    "COMPOUND": "Cc1cccc(Cl)c1C(=O)N[C@@H](Cc1ccc(NC(=O)c2nn(-c3ccccc3)nc2C)cc1)C(=O)O [Example 154]",
    "pIC50": 5.61
  }
]

Read the next record carefully.
Q: Which measured pIC50 value corresponds to Cc1cccc(Cl)c1C(=O)N[C@@H](Cc1ccc(NC(=O)c2sc(C(C)C)nc2C)cc1)C(=O)O [Example 152] ?
A: 6.01
